target.system: human CYP2D6, CYP2D6 (gene 1565)
experiment.notes: NVS_ADME_hCYP2D6: NovaScreen (NVS) CYP450-related Enzyme Activity (ADME) Assay for human CYP2D6 (AID 2283107)
Active and inactive are the calls of the source. Rule for the calls: active = hit-call score of the fitted dose curve at least 0.9, where 1 is the maximum; inconclusive = response in the unintended direction; inactive = score below 0.9.
readout.name: AC50

- smiles.code: "Clc1cc(Cl)c2c(c1)N=C1CCCCCN1C2"
  AC50: "2.71 µM (active)"

[Q] Give AC50 for CN(C)c1ccc(C(=C2C=CC(=[N+](C)C)C=C2)c2ccc(N(C)C)cc2)cc1
[A] 2.86 µM (active)

* * *

target.system: human Thromboxane A2 Receptor (TXA2), TBXA2R (gene 6915) (UniProt P21731)
Sequence (P21731 whole entry, looked up): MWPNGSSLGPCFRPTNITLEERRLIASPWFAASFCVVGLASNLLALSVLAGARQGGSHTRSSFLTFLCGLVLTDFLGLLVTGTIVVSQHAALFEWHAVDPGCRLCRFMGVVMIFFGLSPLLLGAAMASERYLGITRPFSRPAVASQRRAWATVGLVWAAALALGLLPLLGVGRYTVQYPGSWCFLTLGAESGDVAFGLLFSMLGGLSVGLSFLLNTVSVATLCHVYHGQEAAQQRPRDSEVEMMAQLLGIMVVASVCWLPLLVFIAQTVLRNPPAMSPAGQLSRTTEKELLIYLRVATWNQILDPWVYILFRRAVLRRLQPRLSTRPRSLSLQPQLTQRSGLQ
experiment.notes: NVS_GPCR_hTXA2: NovaScreen (NVS) G Protein-Coupled Receptor Assay for human Thromboxane A2 Receptor (TXA2) (AID 2283282);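 note: actives reduce bound radioligand signal relative to DMSO baseline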
Records with an inconclusive call do not appear. The source made the active and inactive calls. The calls were made as follows: active = hit-call score of the fitted dose curve at least 0.9, where 1 is the maximum; inconclusive = response in the unintended direction; inactive = score below 0.9.
Select the correct class. Options are active, inactive and nothing else.

Consider the worked cases shown below.
- smiles.code: "CN(C[C@@H](CC[N+]12CCC(C3CCCCC3)(CC1)CC2)c1ccc(Cl)c(Cl)c1)C(=O)c1cc(C(F)(F)F)cc(C(F)(F)F)c1"
  assigned.class: "active"
- smiles.code: "CCN(Cc1cccc(S(=O)(=O)O)c1)c1ccc(C(=C2C=CC(=[N+](CC)Cc3cccc(S(=O)(=O)O)c3)C=C2)c2ccccc2S(=O)(=O)[O-])cc1"
  assigned.class: "active"
- smiles.code: "CCCCCCCCOc1ccc(C(=O)c2ccccc2)c(O)c1"
  assigned.class: "active"

[Q] Field: outcome | Entry: CO[C@H]1/C=C/O[C@@]2(C)Oc3c(C)c(O)c4c(O)c(c(/C=N/N5CCN(C)CC5)c(O)c4c3C2=O)NC(=O)/C(C)=C\C=C\[C@H](C)[C@H](O)[C@@H](C)[C@@H](O)[C@@H](C)[C@H](OC(C)=O)[C@@H]1C
[A] inactive

[Q] What did the test return for CCN(Cc1cccnc1)C(=O)c1cccc(Cl)c1[C@]1(C)C(=O)N(Cc2ccc(OC)cc2OC)c2ccc(Cl)cc21 ?
[A] active

[Q] Could you check what this test reported for CCN(CC)C(=O)c1cc(S(=O)(=O)Cc2ccccc2)c(N2CCC(c3ccccc3)CC2)cc1N(CC)CCN(C)C ?
[A] inactive

[Q] // outcome(item) with item = CC/C(=C(/CC)c1ccc(O)cc1)c1ccc(O)cc1
[A] active
